# Tested on: IGROV1 ovarian
# TEST SUMMARY: NCI-60 one-dose screen, 48 h
# CONDITION SET: 10 µM unless noted
The panel holds about 83,000 compounds, 20% with a hit somewhere; the sample as a whole holds those more often. Calls of active or inactive are those of the source. The calls were made as follows: active = growth percent below 10; inactive = the rest.
Labels: active, inactive

- COMPOUND: "CC12CCC3C(C=CC4=C(N)C(=O)CCC43C)C1CCC2=O (stereo not given)"
  ASSAY TARGET: "IGROV1 ovarian"
  LABEL: "inactive"
- COMPOUND: "Cc1ccc2c(C(C[N+](=O)[O-])c3cccs3)c(-c3ccccc3)[nH]c2c1 (stereo not given)"
  ASSAY TARGET: "IGROV1 ovarian"
  LABEL: "inactive"
- COMPOUND: "O=C1CCC2(O)[C@@H]3Cc4ccc(O)c5c4[C@]2(CCN3Cc2ccoc2)C1O5 (stereo not given in full)"
  ASSAY TARGET: "IGROV1 ovarian"
  LABEL: "inactive"
- COMPOUND: "COC(=O)[C@H](Cc1c[nH]c2ccccc12)NC(=O)[C@@H](OC)[C@@H]1Cc2cc3cc(OC4CC(OC5CC(O)C(O)C(C)O5)C(O)C(C)O4)c(C)c(O)c3c(O)c2C(=O)[C@H]1OC1CC(OC2CC(OC3CC(C)(O)C(O)C(C)O3)C(O)C(C)O2)C(O)C(C)O1 (stereo not given in full)"
  ASSAY TARGET: "IGROV1 ovarian"
  LABEL: "inactive"
- COMPOUND: "C/C(=C\\c1cc(C(F)(F)F)nn1CCNC(=O)OC(C)(C)C)[C@@H]1C[C@@H]2O[C@]2(C)CCC[C@H](C)[C@H](O)[C@@H](C)C(=O)C(C)(C)[C@@H](O)CC(=O)O1"
  ASSAY TARGET: "IGROV1 ovarian"
  LABEL: "inactive"
- COMPOUND: "CC(=O)O[C@H](C[C@H](C(C)C)N(C)C(=O)[C@@H](NC(=O)[C@H]1CCCCN1C)C(C)C)c1nc(C(=O)NC2CCC(C(=O)O)CC2)cs1 (stereo not given in full)"
  ASSAY TARGET: "IGROV1 ovarian"
  LABEL: "inactive"
- COMPOUND: "CC[C@H](C)[C@H](NC(=O)c1nccn1C)C(=O)N(C)[C@H](C[C@@H](OC(C)=O)c1nc(C(=O)N[C@@H](Cc2ccccc2)C[C@H](C)C(=O)OC)cs1)C(C)C"
  ASSAY TARGET: "IGROV1 ovarian"
  LABEL: "inactive"
- COMPOUND: "CCCc1cc(O)c2c3c(c(=O)oc2c1)CN(C)CC3"
  ASSAY TARGET: "IGROV1 ovarian"
  LABEL: "inactive"
- COMPOUND: "CC(C)COC(C[N+](=O)[O-])C(Cl)(Cl)Cl (stereo not given)"
  ASSAY TARGET: "IGROV1 ovarian"
  LABEL: "inactive"
- COMPOUND: "CC[S][Hg][Cl]"
  ASSAY TARGET: "IGROV1 ovarian"
  LABEL: "inactive"
- COMPOUND: "CC[C@H](C)[C@H](NC(=O)C12CC(NC(C)=O)(C1)C2)C(=O)N(C)[C@H](C[C@@H](OC(C)=O)c1nc(C(=O)N[C@@H](Cc2ccccc2)C[C@H](C)C(=O)OC)cs1)C(C)C"
  ASSAY TARGET: "IGROV1 ovarian"
  LABEL: "inactive"
- COMPOUND: "CC[C@H](C)[C@H](NC(=O)C12C3C4C1C1C2C3C41NC)C(=O)N(C)[C@H](C[C@@H](OC(C)=O)c1nc(C(=O)N[C@@H](Cc2ccccc2)C[C@H](C)C(=O)OC)cs1)C(C)C (stereo not given in full)"
  ASSAY TARGET: "IGROV1 ovarian"
  LABEL: "inactive"
- COMPOUND: "C[C@]12CCc3sc(NCCc4ccccc4)nc3C1=CC[C@@H]1[C@@H]2CC[C@]2(C)C(=O)CC[C@@H]12"
  ASSAY TARGET: "IGROV1 ovarian"
  LABEL: "inactive"
- COMPOUND: "Clc1cccc(N2COOC3(OOC2)C2CC4CC(C2)CC3C4)c1"
  ASSAY TARGET: "IGROV1 ovarian"
  LABEL: "active"
- COMPOUND: "CCCCCCCCCCCCNC(c1ccccc1)C(O)c1ccccc1 (stereo not given)"
  ASSAY TARGET: "IGROV1 ovarian"
  LABEL: "inactive"
